- Test system: Fusarium oxysporum
- protocol details: Antifungal activity against Fusarium oxysporum assessed as inhibition of growth zone at 40 ug/ml after 2 to 3 days by cup-plate method relative to clotrimazole
- Type: functional
Reported inhibition at 40 µg/mL is given for each of the following compounds.
property name: inhibition at 40 µg/mL (%)

>>> observed("O=c1c2ccccc2nc(/C=C/c2ccccc2)n1-c1nnc(/C=C/c2ccccc2)s1")
38
>>> observed("COc1ccc(/C=C/c2nc3ccccc3c(=O)n2-c2nnc(-c3ccc(Cl)cc3)s2)cc1")
32
>>> observed("COc1ccc(/C=C/c2nc3ccccc3c(=O)n2-c2nnc(-c3cccc(Cl)c3)s2)cc1")
37
>>> observed("O=c1c2ccccc2nc(/C=C/c2ccccc2)n1-c1nnc(-c2ccccc2)s1")
37
>>> observed("COc1ccc(/C=C/c2nc3ccccc3c(=O)n2-c2nnc(-c3ccc(OC)cc3)s2)cc1")
32
>>> observed("Cc1ccc(/C=C/c2nc3ccccc3c(=O)n2-c2nnc(/C=C/c3ccccc3)s2)cc1")
53
>>> observed("Cc1ccc(/C=C/c2nc3ccccc3c(=O)n2-c2nnc(-c3ccc(C)cc3)s2)cc1")
57
>>> observed("COc1ccc(-c2nnc(-n3c(/C=C/c4ccc(C)cc4)nc4ccccc4c3=O)s2)cc1")
51
>>> observed("Cc1ccc(/C=C/c2nc3ccccc3c(=O)n2-c2nnc(-c3cccc(Cl)c3)s2)cc1")
59

---

Reported inhibition at 40 µg/mL is given for each of the following compounds.
- Test system: Candida albicans
- protocol details: Antifungal activity against Candida albicans MTCC 227 assessed as inhibition of growth zone at 40 ug/ml after 2 to 3 days by cup-plate method relative to clotrimazole
- Assay type: functional
property name: inhibition at 40 µg/mL (%)

>>> observed("Cc1ccc(/C=C/c2nc3ccccc3c(=O)n2-c2nnc(-c3ccccc3)s2)cc1")
50
>>> observed("O=c1c2ccccc2nc(/C=C/c2ccccc2)n1-c1nnc(-c2ccc(Cl)cc2)s1")
51
>>> observed("Cc1ccc(/C=C/c2nc3ccccc3c(=O)n2-c2nnc(-c3ccc(C)cc3)s2)cc1")
62
>>> observed("COc1ccc(/C=C/c2nc3ccccc3c(=O)n2-c2nnc(-c3ccc(C)cc3)s2)cc1")
50
>>> observed("COc1ccc(/C=C/c2nc3ccccc3c(=O)n2-c2nnc(-c3cccc(Cl)c3)s2)cc1")
30
>>> observed("Cc1ccc(/C=C/c2nc3ccccc3c(=O)n2-c2nnc(-c3cccc(Cl)c3)s2)cc1")
61
>>> observed("O=c1c2ccccc2nc(/C=C/c2ccccc2)n1-c1nnc(-c2ccccc2)s1")
29
>>> observed("COc1ccc(-c2nnc(-n3c(/C=C/c4ccc(C)cc4)nc4ccccc4c3=O)s2)cc1")
50
>>> observed("COc1ccc(-c2nnc(-n3c(/C=C/c4ccccc4)nc4ccccc4c3=O)s2)cc1")
38

---

- Test system: Pseudomonas aeruginosa
- protocol details: Antibacterial activity against Pseudomonas aeruginosa MTCC 424 after 24 hr by cup-plate method
- Type: functional
- condition description: MTCC 424, 24 h
MIC strictly less than 10 µg/mL = label 1. Otherwise label 0.

>>> answer_label("COc1ccc(-c2nnc(-n3c(/C=C/c4ccccc4)nc4ccccc4c3=O)s2)cc1")
"label 0"
>>> answer_label("O=c1c2ccccc2nc(/C=C/c2ccccc2)n1-c1nnc(-c2ccc(Cl)cc2)s1")
"label 0"
>>> answer_label("O=c1c2ccccc2nc(/C=C/c2ccccc2)n1-c1nnc(-c2ccccc2)s1")
"label 0"
>>> answer_label("COc1ccc(-c2nnc(-n3c(/C=C/c4ccc(C)cc4)nc4ccccc4c3=O)s2)cc1")
"label 1"
>>> answer_label("COc1ccc(/C=C/c2nc3ccccc3c(=O)n2-c2nnc(-c3ccc(C)cc3)s2)cc1")
"label 1"
>>> answer_label("Cc1ccc(/C=C/c2nc3ccccc3c(=O)n2-c2nnc(-c3ccc(C)cc3)s2)cc1")
"label 0"
>>> answer_label("CN(C)C=O [DIMETHYLFORMAMIDE]")
"label 1"
>>> answer_label("CCn1cc(C(=O)O)c(=O)c2cc(F)c(N3CCNCC3)cc21")
"label 0"
>>> answer_label("COc1ccc(/C=C/c2nc3ccccc3c(=O)n2-c2nnc(-c3cccc(Cl)c3)s2)cc1")
"label 1"
>>> answer_label("COc1ccc(/C=C/c2nc3ccccc3c(=O)n2-c2nnc(-c3ccc(OC)cc3)s2)cc1")
"label 1"
